Provenance of the data: paper PMC8954547

test system: SCID mice bearing twin HEK293-CCK2i4svR and wtHEK293 tumors; test: Biodistribution in SCID mice bearing twin HEK293-CCK2i4svR and wtHEK293 xenografts; type: in vivo; conditions: 4 h pi
measuredProperty: Biodistribution, Pancreas (%IA/g)
Provide only the numeric value, understood in %IA/g.

Quick check: Biodistribution, Pancreas of CC(C)(C)C(=O)CN1C(=O)[C@H](NC(=O)Nc2cccc(C(=O)NCCOCCOCCOCCNC(=O)[C@H](CCC(=O)O)NC(=O)CCC(C(=O)O)N3CCN(CC(=O)[O-])CCN(CC(=O)[O-])CCN(CC(=O)[O-])CC3)c2)CN(C2CCCCC2)c2ccccc21.[177Lu+3] (stereo in doubt) [[^177Lu]Lu-GAS3] ?
1.00

Looking for the measured Biodistribution, Pancreas of CC(C)(C)C(=O)CN1C(=O)[C@H](NC(=O)Nc2cccc(C(=O)NCCOCCOCCOCCNC(=O)[C@H](CCC(=O)O)NC(=O)CCC(C(=O)[O-])N3CCN(CC(=O)[O-])CCN(CC(=O)[O-])CC3)c2)CN(C2CCCCC2)c2ccccc21.[67Ga+3] (stereo in doubt) [[^67Ga]Ga-GAS2] , can you help?
0.08

Value lookup for Biodistribution, Pancreas; key = CC(C)(C)C(=O)CN1C(=O)[C@H](NC(=O)Nc2cccc(C(=O)NCCOCCOCCOCCNC(=O)[C@@H](CCC(=O)O)NC(=O)CCC(C(=O)O)N3CCN(CC(=O)[O-])CCN(CC(=O)[O-])CCN(CC(=O)[O-])CC3)c2)CN(C2CCCCC2)c2ccccc21.[111In+3] (some centres unmarked) [[^111In]In-GAS3]
0.86

Bench note: what Biodistribution, Pancreas did CC(C)(C)C(=O)CN1C(=O)[C@H](NC(=O)Nc2cccc(C(=O)NCCOCCOCCOCCNC(=O)[C@@H](CCC(=O)O)NC(=O)CCC(C(=O)[O-])N3CCN(CC(=O)[O-])CCN(CC(=O)[O-])CC3)c2)CN(C2CCCCC2)c2ccccc21.[111In+3] (some centres unmarked) [[^111In]In-GAS2] show?
2.99

Entry CC(C)(C)C(=O)CN1C(=O)[C@H](NC(=O)Nc2cccc(C(=O)NCCOCCOCCOCCNC(=O)[C@H](CCC(=O)O)NC(=O)CN3CCN(CC(=O)[O-])CCN(CC(=O)[O-])CCN(CC(=O)[O-])CC3)c2)CN(C2CCCCC2)c2ccccc21.[67Ga+3] (stereo in doubt) [[^67Ga]Ga-GAS1] : reported Biodistribution, Pancreas = ?
0.51

Requested field: Biodistribution, Pancreas. Item: CC(C)(C)C(=O)CN1C(=O)[C@H](NC(=O)Nc2cccc(C(=O)NCCOCCOCCOCCNC(=O)[C@H](CCC(=O)O)NC(=O)CCC(C(=O)O)N3CCN(CC(=O)[O-])CCN(CC(=O)[O-])CCN(CC(=O)[O-])CC3)c2)CN(C2CCCCC2)c2ccccc21.[67Ga+3] (stereo in doubt) [[^67Ga]Ga-GAS3]
0.77

Continuing:
Dear colleague, I am looking for the recorded Biodistribution, Pancreas of the following molecule: CC(C)(C)C(=O)CN1C(=O)[C@H](NC(=O)Nc2cccc(C(=O)NCCOCCOCCOCCNC(=O)[C@H](CCC(=O)O)NC(=O)CN3CCN(CC(=O)[O-])CCN(CC(=O)[O-])CCN(CC(=O)[O-])CC3)c2)CN(C2CCCCC2)c2ccccc21.[111In+3] (stereo in doubt) [[^111In]In-GAS1]
1.49

I have this molecule here, CC(C)(C)C(=O)CN1C(=O)[C@H](NC(=O)Nc2cccc(C(=O)NCCOCCOCCOCCNC(=O)[C@H](CCC(=O)O)NC(=O)CN3CCN(CC(=O)[O-])CCN(CC(=O)[O-])CCN(CC(=O)[O-])CC3)c2)CN(C2CCCCC2)c2ccccc21.[177Lu+3] (stereo in doubt) [[^177Lu]Lu-GAS1] , and I need its recorded Biodistribution, Pancreas.
0.56
